Reference source for all entries: the NIST ThermoML archive (doi:10.1021/acs.jced.9b00511)

Conditions: 303.2 K, Wilhelmy Plate
ENDPOINT_NAME: surface tension liquid-gas (mN/m)

[
  {
    "COMPOUND": "C[N+](C)(C)C.NCC(=O)[O-] [tetramethylammonium glycinate]",
    "REPORTED": 56.2
  },
  {
    "COMPOUND": "CCCCn1cc[n+](C)c1.NCC(=O)[O-] [1-butyl-3-methylimidazolium glycinate]",
    "REPORTED": 42.9
  },
  {
    "COMPOUND": "CC(O)CN(C)C (centres undefined)",
    "REPORTED": 24
  },
  {
    "COMPOUND": "CCCCn1cc[n+](C)c1.NCCCC[C@H](N)C(=O)[O-] [1-butyl-3-methylimidazolium L-lysinate]",
    "REPORTED": 45.9
  }
]
